# tested.system: hENPP1-ECD-His (Homo sapiens (Human))
# Sequence (P22413 98-925): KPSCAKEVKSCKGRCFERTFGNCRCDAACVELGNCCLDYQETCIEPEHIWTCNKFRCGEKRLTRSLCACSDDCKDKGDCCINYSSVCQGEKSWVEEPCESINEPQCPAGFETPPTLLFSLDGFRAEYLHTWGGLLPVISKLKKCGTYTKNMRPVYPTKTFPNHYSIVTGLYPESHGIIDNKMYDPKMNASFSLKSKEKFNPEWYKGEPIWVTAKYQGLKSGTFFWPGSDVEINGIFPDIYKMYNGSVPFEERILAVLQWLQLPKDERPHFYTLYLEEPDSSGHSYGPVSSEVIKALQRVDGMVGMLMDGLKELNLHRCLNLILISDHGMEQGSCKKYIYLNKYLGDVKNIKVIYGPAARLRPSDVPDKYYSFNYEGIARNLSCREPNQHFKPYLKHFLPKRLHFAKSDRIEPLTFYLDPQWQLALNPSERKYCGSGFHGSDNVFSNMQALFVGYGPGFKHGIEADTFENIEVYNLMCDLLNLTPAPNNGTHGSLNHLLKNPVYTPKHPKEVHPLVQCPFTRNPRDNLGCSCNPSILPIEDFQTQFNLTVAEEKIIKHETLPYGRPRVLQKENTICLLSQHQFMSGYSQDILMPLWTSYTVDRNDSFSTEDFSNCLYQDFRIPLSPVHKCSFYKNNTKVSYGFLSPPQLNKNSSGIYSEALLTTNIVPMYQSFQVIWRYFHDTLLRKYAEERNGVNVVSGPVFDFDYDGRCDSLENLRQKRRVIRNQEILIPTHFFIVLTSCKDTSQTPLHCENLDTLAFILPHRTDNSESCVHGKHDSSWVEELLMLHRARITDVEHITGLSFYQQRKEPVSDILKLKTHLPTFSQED
# assay: ENPP1 inhibitory activity, substrate 2',3'-cGAMP detection (AMP-Glo)
# run.conditions: read-out: c-GAMP (IC50, nM), inhibitory effect on ENPP1
Below, each entry is listed with its recorded log10(IC50).
// units: nM (pre-log); metric: IC50; scale: log10

Recorded results for 5 compounds are shown here.
{"compound": "COc1ccc2c(Nc3ccc(CP(=O)(O)O)nc3)ccnc2n1", "tested.system": "hENPP1-ECD-His (Homo sapiens (Human))", "log10(IC50)": 0.32}
{"compound": "COc1ccc2c(Nc3ccc(CP(=O)(O)O)cn3)ccnc2n1", "tested.system": "hENPP1-ECD-His (Homo sapiens (Human))", "log10(IC50)": 0.70}
{"compound": "COc1ccc2c(Oc3cc(F)c(CP(=O)(O)O)c(F)c3)ccnc2n1", "tested.system": "hENPP1-ECD-His (Homo sapiens (Human))", "log10(IC50)": 1.04}
{"compound": "COc1ccc2c(Nc3ccc(CP(=O)(O)O)cc3)ncnc2n1", "tested.system": "hENPP1-ECD-His (Homo sapiens (Human))", "log10(IC50)": -0.03}
{"compound": "COc1cccc2c(N3CCC(CCP(=O)(O)O)CC3)ncnc12 [STF32, reference compound]", "tested.system": "hENPP1-ECD-His (Homo sapiens (Human))", "log10(IC50)": 0.79}

## Input // returns reported log10(IC50) for input COc1cc2ncnc(Nc3ccc(CP(=O)(O)O)cc3)c2cc1OC [STF22, reference compound]
## Output 1.80

## Input What would you report for "COc1ccc2c(Oc3c(F)cc(CP(=O)(O)O)cc3F)ccnc2n1" ?
## Output 1.26

## Input What would you report for "COc1ccc2c(Oc3cc(F)c(CP(=O)(O)O)cc3F)ccnc2n1" ?
## Output 1.04

## Input What would you report for "COc1ccc2c(Oc3ccc(CCP(=O)(O)O)cc3)ccnc2n1" ?
## Output 1.57
